// values below are reported inhibition at 20 µM
studySystem: rSmTAChE (Schistosoma mansoni)
Sequence (A0A3Q0KMM5 27-661 limits assumed): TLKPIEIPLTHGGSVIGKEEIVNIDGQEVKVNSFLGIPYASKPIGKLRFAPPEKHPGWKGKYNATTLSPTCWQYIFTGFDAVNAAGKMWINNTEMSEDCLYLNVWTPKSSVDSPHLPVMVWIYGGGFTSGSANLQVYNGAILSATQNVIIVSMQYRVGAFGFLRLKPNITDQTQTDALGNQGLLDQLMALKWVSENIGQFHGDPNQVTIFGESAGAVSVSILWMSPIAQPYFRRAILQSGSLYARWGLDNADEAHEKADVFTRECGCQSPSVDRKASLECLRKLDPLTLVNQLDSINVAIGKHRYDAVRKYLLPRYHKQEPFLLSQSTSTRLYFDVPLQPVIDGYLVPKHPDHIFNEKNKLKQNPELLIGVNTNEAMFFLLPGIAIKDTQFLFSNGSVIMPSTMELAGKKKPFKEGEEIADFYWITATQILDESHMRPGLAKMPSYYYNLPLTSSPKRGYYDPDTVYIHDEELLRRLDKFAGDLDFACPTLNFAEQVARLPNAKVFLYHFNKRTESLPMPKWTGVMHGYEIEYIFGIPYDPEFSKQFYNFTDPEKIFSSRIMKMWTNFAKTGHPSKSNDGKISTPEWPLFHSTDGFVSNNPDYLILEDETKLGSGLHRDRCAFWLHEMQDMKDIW
test: biochemical
condition: read-out: rSmTAChE HTS Inhibition (Ave, %)

molecule	inhibition at 20 µM
CCCCCCCCCCCCCCCC[N+](C)(C)CCN(Cc1ccc(OC)cc1)c1ncccn1 [Thonzonium bromide, reference compound]	67%
CC1(COc2ccc3c(c2)ncn3-c2ccc3cccc(N4CCC(N)CC4)c3n2)COC1 [Crenolanib, reference compound]	64.5%
CN(C)C(=O)Oc1ccc[n+](C)c1 [Pyridostigmine bromide, reference compound]	92.4%

Item O=C(NC(=O)c1c(F)cccc1F)Nc1cc(Cl)c(OC(F)(F)C(F)C(F)(F)F)cc1Cl (stereo not drawn) [Lufenuron, reference compound] was tested on rSmTAChE (Schistosoma mansoni); the reported inhibition at 20 µM is 92.6%

Item O=C(Nc1cccc2c(=O)cc(-c3nnn[nH]3)oc12)c1ccc(OCCCCc2ccccc2)cc1 [Pranlukast, reference compound] was tested on rSmTAChE (Schistosoma mansoni); the reported inhibition at 20 µM is 66.3%

Item CN(CCCCCCCCCCN(C)C(=O)Oc1cccc([N+](C)(C)C)c1)C(=O)Oc1cccc([N+](C)(C)C)c1 [Demecarium bromide, reference compound] was tested on rSmTAChE (Schistosoma mansoni); the reported inhibition at 20 µM is 65.3%

All figures here come from paper PMC12154458.
